- assay name: Plasma protein binding, mouse
- Format: in vitro ADME
- condition: 1 μM, read-out: Plasma Protein Binding (% Bound) (converted)
measured attribute: fraction unbound at 1 μM
Answers are plain numbers.

-- ask Could you share which fraction unbound at 1 μM value was measured for `CCC(CC)C(=O)Nc1nc(-c2ccc(S(=O)(=O)N3CCOCC3)cc2)cs1` ?
-- reply 0.0381

* * *

- assay name: PAMPA permeability
- Format: in vitro ADME
- condition: PAMPA, pH 7.4, Donor pH 7.4, Acceptor pH 7.4; read-out: PAMPA Permeability, Pe
- Experimental: The PAMPA (Parallel Artificial Membrane Permeability Assay) assay was used as an in vitro model of passive, transcellular permeability. An artificial membrane immobilized on a filter was placed between a donor and acceptor compartment. At the start of the test, drug was introduced in the donor compartment. Following the permeation period, the concentration of drug in the donor and acceptor compartments was measured using UV spectroscopy.
measured attribute: Papp (×10⁻⁶ cm/s)
Numbers only, in ×10⁻⁶ cm/s.

-- ask Could you share which Papp value was measured for `CCC(CC)C(=O)Nc1nc(-c2ccc(S(=O)(=O)N3CCOCC3)cc2)cs1` ?
-- reply 653

* * *

- measured on: FASN-TE (Homo sapiens)
- Sequence (P49327 2207-2511 limits assumed): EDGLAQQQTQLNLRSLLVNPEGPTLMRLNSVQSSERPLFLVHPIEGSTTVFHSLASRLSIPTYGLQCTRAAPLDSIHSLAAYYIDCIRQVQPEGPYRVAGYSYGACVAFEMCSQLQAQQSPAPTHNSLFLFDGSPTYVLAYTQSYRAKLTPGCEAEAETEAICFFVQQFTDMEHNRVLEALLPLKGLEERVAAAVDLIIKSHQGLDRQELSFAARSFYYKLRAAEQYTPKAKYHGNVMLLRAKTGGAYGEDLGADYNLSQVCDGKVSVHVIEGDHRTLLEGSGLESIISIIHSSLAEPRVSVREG
Would you kindly list pIC50 for each of these compounds?
Give bare numbers, as −log10 of the molar value.

Here is how some compounds turned out for pIC50.
compound	measured attribute	reported measurement
CCN(CC)S(=O)(=O)c1ccc(-c2csc(Cc3ccc(F)cc3)n2)cc1 [Compound 111]	pIC50	5.62
CCN(CC)S(=O)(=O)c1ccc(-c2csc(Cc3cccc(I)c3)n2)cc1 [Compound 112]	pIC50	5.30

Dear colleague, could you send me pIC50 for each of the items below? Thanks.
1. O=C(Nc1nc(-c2ccc(S(=O)(=O)N3CCOCC3)cc2)cs1)C1CC1 [Compound 17]
2. CCC(C)C(=O)Nc1nc(-c2ccc(S(=O)(=O)N(CC)CC)cc2)cs1 (stereo not drawn) [Compound 37]
3. CN(C)S(=O)(=O)c1ccc(-c2csc(-c3cccnc3)n2)cc1 [Compound 83]
4. CCCCC(=O)Nc1nc(-c2ccc(S(=O)(=O)N3CCSCC3)cc2)cs1 [Compound 12]
5. O=S(=O)(c1ccc(-c2csc(-c3cccnc3)n2)cc1)N1CCCCC1 [Compound 64]
6. O=S(=O)(c1ccc(-c2csc(Cc3ccccc3)n2)cc1)N1CCOCC1 [Compound 96]
7. CC(=O)Nc1nc(-c2ccc(S(=O)(=O)N3CCOCC3)cc2)cs1 [Compound 9]
8. CCCCC(=O)Nc1nc(-c2ccc(S(=O)(=O)N3CCC(C)CC3)cc2)cs1 [Compound 22]

-- reply
5.28
6.52
5.28
6.15
5.57
6.18
4.87
6.30

Dear colleague, could you send me pIC50 for each of the items below? Thanks.
1. CCC(C)C(=O)Nc1nc(-c2ccc(S(=O)(=O)N3CCCC3)cc2)cs1 (stereo not drawn) [Compound 48]
2. CCN(CC)S(=O)(=O)c1ccc(-c2csc(NC(=O)CC(C)C)n2)cc1 [Compound 99]
3. CCC(CC)C(=O)Nc1nc(-c2ccc(S(=O)(=O)N(CC)CC)cc2)cs1 [Compound 55]
4. CCC(=O)Nc1nc(-c2ccc(S(=O)(=O)N3CCOCC3)cc2)cs1 [Compound 14]
5. CCC(C)C(=O)Nc1nc(-c2ccc(S(=O)(=O)N3CCCCC3C)cc2)cs1 (stereo not drawn) [Compound 44]
6. COc1ccccc1C(=O)Nc1nc(-c2ccc(S(=O)(=O)N3CCOCC3)cc2)cs1 [Compound 5]

-- reply
6.82
4.72
6.48
5.35
6.54
4.93

* * *

- assay name: PAMPA permeability
- Format: in vitro ADME
- condition: PAMPA, Donor pH 5.0, Acceptor pH 7.4; read-out: PAMPA Permeability, Pe
measured attribute: Papp (×10⁻⁶ cm/s)
Give bare numbers, in ×10⁻⁶ cm/s.

-- ask Could you share which Papp value was measured for `CCC(CC)C(=O)Nc1nc(-c2ccc(S(=O)(=O)N3CCOCC3)cc2)cs1` ?
-- reply 914

* * *

Below are pIC50 values measured for UniProt:P49327.
One number for each entry, as −log10 of the molar value.

molecule	pIC50
CC(C)C(=O)Nc1nc(-c2ccc(S(=O)(=O)N(C)C)cc2)cs1	6.24
O=C(Nc1nc(-c2ccc(S(=O)(=O)N3CCCC3)cc2)cs1)C1CCCC1	6.14
CC1CCN(S(=O)(=O)c2ccc(-c3csc(NC(=O)C(C)C)n3)cc2)CC1	6.18

Dear colleague, could you send me pIC50 for each of the items below? Thanks.
1. CC(C)C(=O)Nc1nc(-c2ccc(S(=O)(=O)N3CCOCC3)cc2)cs1
2. CCCCCC(=O)Nc1nc(-c2ccc(S(=O)(=O)N3CCC(C)CC3)cc2)cs1

-- reply
1: 6.09; 2: 6.12

Dear colleague, could you send me pIC50 for each of the items below? Thanks.
1. CC(C)CC(=O)Nc1nc(-c2ccc(S(=O)(=O)N3CCC(C)CC3)cc2)cs1
2. CCN(CC)S(=O)(=O)c1ccc(-c2csc(NC(=O)C3CCCC3)n2)cc1

-- reply
[4.22, 5.92]

Taken from patent US10071976B2.
